From: patent US5726325A

Test system: detrusor muscle
ASSAY_DETAILS: Test Example 1: relaxation of guinea pig bladder strips contracted with 50 mM KCl
Assay type: cell-based, guinea pig (male albino Hartley)
PROTOCOL_CONDITIONS: Cavia porcellus; contraction induced by 50 mM KCl; concentration decreasing detrusor contraction by 50%
Friendly reminder: IC50 below 4 µM is condition met, at or above is condition not met.

Examples with answers:
COMPOUND	SUBJECT_OF_TEST	CATEGORY
CC(O)(C(=O)Nc1ccc2c(c1)OCc1sccc1C2=O)C(F)(F)F (stereo not drawn)	detrusor muscle	condition not met
CC(O)(C(=O)Nc1ccc2c(c1)SCc1ccccc1C2=O)C(F)(F)F (stereo not drawn)	detrusor muscle	condition met
CC(O)(C(=O)Nc1ccc2ccc3ccccc3c(=O)c2c1)C(F)(F)F (stereo not drawn)	detrusor muscle	condition met

Now examine the next entry.
Problem: For the compound CC(O)(C(=O)Nc1cccc2c1C(=O)c1ccoc1CO2)C(F)(F)F (stereo not drawn) , is IC50 under 4 µM?
condition not met

---

Test system: detrusor muscle
ASSAY_DETAILS: Test Example 1: relaxation of guinea pig bladder strips contracted with 50 mM KCl
Format: cell-based, guinea pig (male albino Hartley)
PROTOCOL_CONDITIONS: Cavia porcellus; contraction induced by 50 mM KCl; concentration decreasing detrusor contraction by 50%
Friendly reminder: IC50 below 4 µM is 1, at or above is 0.

COMPOUND	CATEGORY
C[C@@](O)(C(=O)Nc1cccc2c1C(=O)c1sccc1CO2)C(F)(F)F [Compound 34]	1

Problem: For the compound C[C@](O)(C(=O)Nc1cccc2c1C(=O)c1sccc1CO2)C(F)(F)F [Compound 33] , is IC50 under 4 µM?
1

Problem: For the compound CC(O)(C(=O)Nc1cccc2c1C(=O)c1ccccc1CO2)C(F)(F)F (stereo not drawn) [Compound 1] , is IC50 under 4 µM?
1

Problem: For the compound CC(O)(C(=O)Nc1cccc2ccc3ccoc3c(=O)c12)C(F)(F)F (stereo not drawn) [Compound 67] , is IC50 under 4 µM?
0

Problem: For the compound CC(O)(C(=O)Nc1cccc2ccc3sccc3c(=O)c12)C(F)(F)F (stereo not drawn) [Compound 66] , is IC50 under 4 µM?
1

Problem: For the compound CC(O)(C(=O)Nc1cccc2c1C(=O)c1ccoc1CS2)C(F)(F)F (stereo not drawn) [Compound 42] , is IC50 under 4 µM?
0

---

List of pIC50 values.
Test system: detrusor muscle
ASSAY_DETAILS: Test Example 1: relaxation of guinea pig bladder strips contracted with 50 mM KCl
Format: cell-based, guinea pig (male albino Hartley)
PROTOCOL_CONDITIONS: Cavia porcellus; contraction induced by 50 mM KCl; concentration decreasing detrusor contraction by 50%
// pIC50 here means minus log10 of the molar concentration (mol/L)

What value of measured pIC50 is listed for CC(O)(C(=O)Nc1ccc2c(c1)-c1ccccc1C2=O)C(F)(F)F (centres unmarked) [Compound 6] ?
5.21

What value of measured pIC50 is listed for CC(O)(C(=O)Nc1cccc2c1C(=O)c1ccccc1CS2)C(F)(F)F (centres unmarked) [Compound 40] ?
5.82

What value of measured pIC50 is listed for CC(O)(C(=O)Nc1ccc2c(c1)C(=O)c1ccccc1-2)C(F)(F)F (centres unmarked) [Compound 5] ?
5.10

What value of measured pIC50 is listed for C[C@@](O)(C(=O)Nc1ccc2c(c1)OCc1occc1C2=O)C(F)(F)F [Compound 38] ?
4.87

What value of measured pIC50 is listed for CC(O)(C(=O)Nc1cccc2c1-c1ccccc1C2=O)C(F)(F)F (centres unmarked) [Compound 14] ?
5.24
